- MEASURED ON: Arachidonate 5-lipoxygenase-activating protein (Homo sapiens)
- Sequence (P20292 whole entry): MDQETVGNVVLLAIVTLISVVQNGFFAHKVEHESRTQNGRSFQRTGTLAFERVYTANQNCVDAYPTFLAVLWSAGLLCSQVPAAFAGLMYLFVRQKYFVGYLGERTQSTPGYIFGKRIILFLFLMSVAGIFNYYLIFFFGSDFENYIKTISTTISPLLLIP
- EXPERIMENT DESCRIPTION: Inhibition of FLAP in A23187-stimulated human neutrophils assessed as reduction in 5-LO product formation preincubated for 15 mins followed by A23187 and arachidonic acid addition and measured after 10 mins by UV based RP-HPLC analysis
ASSAY READOUT: IC50 (nM)

> print(dat)
                                   compound  assay.readout  value.measured
1  CC(c1ccc(CC(C)(C)C)cc1)c1nc2cc(C#N)ccc2n1Cc1ccccc1Cl (configuration not stated)           IC50            1700
2  CC(Cc1ccc(-c2cnc(N)nc2)cc1)c1nc2cc(C#N)ccc2n1Cc1ccccc1Cl (configuration not stated)           IC50             420
3  CC(C)Cc1ccc(C(C)c2nc3cc(-c4noc(=O)[nH]4)ccc3n2Cc2ccccc2Cl)cc1 (configuration not stated)           IC50             270
4  CC(C)Cc1ccc(C(C)c2nc3cc(-c4nnco4)ccc3n2Cc2ccccc2Cl)cc1 (configuration not stated)           IC50              90
5  CCC(C)c1ccc(C(C)c2nc3cc(C#N)ccc3n2Cc2ccccc2Cl)cc1 (configuration not stated)           IC50             700

[I] CC(C)Cc1ccc(C(C)c2nc3cc(C(=O)O)ccc3n2Cc2ccccc2Cl)cc1 (configuration not stated)
[II] CC(C)Cc1ccc(C(C)c2nc3cc(-c4nc(C(=O)O)cs4)ccc3n2Cc2ccccc2Cl)cc1 (configuration not stated)
Query: Hi, I'm comparing I with II and wondering which one has the bigger number for IC50. Any idea? Kindly give the label for the entry you pick.
Result: I
(I: 280 nM, II: 150 nM)

---

- MEASURED ON: Arachidonate 5-lipoxygenase-activating protein (Homo sapiens)
- EXPERIMENT DESCRIPTION: Inhibition of FLAP in A23187-stimulated human neutrophils assessed as reduction in 5-LO product formation preincubated for 15 mins followed by A23187 and arachidonic acid addition and measured after 10 mins by UV based RP-HPLC analysis
ASSAY READOUT: IC50 (nM)

> print(dat)
                                   compound  assay.readout  value.measured
1  N#Cc1ccc2c(c1)nc(CCc1ccc(-c3cnc(N)nc3)cc1)n2Cc1ccccc1Cl           IC50             370

[P] CC(C)Cc1ccc(C(C)c2nc3cc(C(N)=O)ccc3n2Cc2ccccc2Cl)cc1 (stereo unspecified)
[Q] CC(C)Cc1ccc(C(C)c2nc3cc(-c4ccccc4C(=O)O)ccc3n2Cc2ccccc2Cl)cc1 (stereo unspecified)
[R] CC(C)Cc1ccc(C(C)c2nc3cc(S(N)(=O)=O)ccc3n2Cc2ccccc2Cl)cc1 (stereo unspecified)
[S] CC(C)CCc1ccc(C(C)c2nc3cc(C#N)ccc3n2Cc2ccccc2Cl)cc1 (stereo unspecified)
Query: // ranking: key=IC50, reverse=True Note for the reader: the ranking is given by listing the labels in the order requested.
Result: S, Q, R, P
(S: 18000 nM, Q: 1100 nM, R: 280 nM, P: 130 nM)
